Provide the recorded fraction unbound for the entries that follow.
test: Mouse brain uptake assay (MBUA), 3 mg/kg IV, 0-24 h, 4 time points; format: in vivo, male CD1 mice; conditions: mouse; fraction unbound to plasma proteins; read-out: Fu (p) %

Previously resolved entries follow.
[[record]]
compound = "Cc1cc(F)cnc1[C@@H]1CCC[C@H](c2nc3cccc(N4CCN(C)CC4)c3[nH]2)N1C"
valuemeasured = 0.121

[[record]]
compound = "Cc1c(Cl)ccnc1[C@@H]1CCC[C@H](c2nc3cccc(N4CCN(C)CC4)c3[nH]2)N1C"
valuemeasured = 0.033

[[record]]
compound = "Cc1cccnc1[C@@H]1CCC[C@H](c2nc3cccc(N4C5CCC4CN(C)C5)c3[nH]2)N1"
valuemeasured = 0.201


Below: the item to evaluate.
Q) What does the record list as fraction unbound for CN1[C@@H](c2nc3cccc(N4CCN5CCCC5C4)c3[nH]2)CCC[C@H]1c1ncccc1Cl (stereo partly shown) ?
A) 0.033

---

target: CXCR-4 transfected U87 cell line (U87.CXCR4) (Homo sapiens); assay: Intracellular CXCL-12-induced calcium mobilization assay (FLIPR); conditions: U87.CXCR4 cells; CXCL-12 25-50 ng/mL; compound added 15 min before; read-out: IC50 CXCL-12 Ca^2+ flux U87.CXCR4+
Sequence (P61073 whole entry): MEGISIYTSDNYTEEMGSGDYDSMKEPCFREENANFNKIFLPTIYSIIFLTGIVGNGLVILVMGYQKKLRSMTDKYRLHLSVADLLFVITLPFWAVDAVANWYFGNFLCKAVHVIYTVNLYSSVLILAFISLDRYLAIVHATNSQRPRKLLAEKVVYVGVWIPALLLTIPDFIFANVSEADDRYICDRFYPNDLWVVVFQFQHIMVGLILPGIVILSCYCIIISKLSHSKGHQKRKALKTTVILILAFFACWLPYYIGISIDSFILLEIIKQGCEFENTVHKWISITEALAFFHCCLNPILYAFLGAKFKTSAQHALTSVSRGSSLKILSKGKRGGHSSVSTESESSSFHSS
measuredMetric: IC50

Previously resolved entries follow.
[[record]]
molecule = "CN1CCN(c2cccc3nc([C@H]4CCC[C@@H](c5nccc6ccccc56)N4C)[nH]c23)CC1"
targetentity = "CXCR-4 transfected U87 cell line (U87.CXCR4) (Homo sapiens)"
valuemeasured = "0.01 to 100 nM"

[[record]]
molecule = "CN1CCN(c2cccc3nc([C@H]4CCC[C@@H](c5nccc6occc56)N4C)[nH]c23)CC1"
targetentity = "CXCR-4 transfected U87 cell line (U87.CXCR4) (Homo sapiens)"
valuemeasured = "100 to 1000 nM"

[[record]]
molecule = "CN(C)C1CCN(c2cccc3nc([C@H]4CCC[C@@H](c5ncccc5Cl)N4)[nH]c23)CC1"
targetentity = "CXCR-4 transfected U87 cell line (U87.CXCR4) (Homo sapiens)"
valuemeasured = "0.01 to 100 nM"


Parameters: items (list). Returns: IC50 for each item.
1. CN1CCN(c2cccc3nc([C@H]4CCC[C@@H](c5ncccc5Cl)N4)[nH]c23)CC12CC2
2. Cc1cccnc1[C@@H]1CCC[C@H](c2nc3ccccc3n2CCCCN2CCN(C)CC2)N1C

A)
["≥ 1000 nM", "≥ 1000 nM"]

---

Provide the recorded Papp B→A at 90 min, 10 μM for the entries that follow.
assay: in vitro; conditions: human, Caco-2, pH 7.4

Previously resolved entries follow.
[[record]]
chemsmiles = "COc1cccnc1[C@@H]1CCC[C@H](c2nc3cccc(N4CCN(C)CC4)c3[nH]2)N1"
measuredmetric = "Papp B→A at 90 min, 10 μM"
valuemeasured = "10 to 30 ×10⁻⁶ cm/s"

[[record]]
chemsmiles = "Cc1cccnc1[C@@H]1CCC[C@H](c2nc3ccccc3n2CC2CCN(C)CC2)N1CC(F)(F)F"
measuredmetric = "Papp B→A at 90 min, 10 μM"
valuemeasured = "10 to 30 ×10⁻⁶ cm/s"

[[record]]
chemsmiles = "Cc1cccnc1[C@@H]1CCC[C@H](c2nc3ccccc3n2CCCNC2CCOCC2)N1C"
measuredmetric = "Papp B→A at 90 min, 10 μM"
valuemeasured = "10 to 30 ×10⁻⁶ cm/s"

[[record]]
chemsmiles = "Cc1cccnc1[C@@H]1CCC[C@H](c2nc3cccc(N4CCN(C)CC4=O)c3[nH]2)N1C"
measuredmetric = "Papp B→A at 90 min, 10 μM"
valuemeasured = "10 to 30 ×10⁻⁶ cm/s"


Q) What does the record list as Papp B→A at 90 min, 10 μM for Cc1cccnc1[C@@H]1CCC[C@H](c2nc3ccccc3n2CCC#N)N1C ?
A) > 30 ×10⁻⁶ cm/s
